These data points were gathered from patent US20240262835A1.

# experiment.notes: Liver microsome metabolic stability (LMS) assay, cynomolgus monkey
# details: cynomolgus monkey, microsomes
measured.endpoint: half-life at 1 μM (min)
Quick note: give the figure in min, leave out the unit.

Prompt: Return the recorded half-life at 1 μM value; entry: C[C@]12CC[C@H]3[C@@H](CCC4=CC(=O)CC[C@@]43C)[C@@H]1CC[C@@H]2O [Ref. 4, Testosterone, reference compound]
Completion: 9.1

====

# Test system: HCT116 homozygous MTAP knockout cells
# experiment.notes: HCT116 cell proliferation assay (CTG), MTAP knockout cells
# Type: cell-based, human
# details: Homo sapiens, HCT-116, 6 days treatment, Cell Titer-Glo
measured.endpoint: pIC50
Just so you know, pIC50 here is -log10 of the concentration in molar units; reply with that number alone.

compound: CN(C(=O)c1ccc2nc(N)c3cncn3c2c1)[C@@H]1COc2cc(C(F)(F)F)ccc21 [Compound 12]
pIC50: 7.37
--
compound: CN(C(=O)c1cc2c(cn1)nc(N)c1cncn12)C1COc2cc(C(F)(F)F)cnc21 (centres unmarked) [Compound 31]
pIC50: 5.82
--
compound: CN(C(=O)c1cc2c(cn1)nc(N)c1cncn12)[C@@H]1COc2cc(C(F)(F)F)ccc21 [Compound 14]
pIC50: 7.15
--
compound: Cn1ncc(-c2ccc3c(c2)nc(N)c2cncn23)c1-c1c(F)c(Cl)cc(OC2CC2)c1C#N [Compound 2]
pIC50: 6.80
--
compound: Cn1ncc(-c2ccc3c(c2)nc(N)c2cncn23)c1-c1c(F)cc2ccccc2c1C#N [Compound 1]
pIC50: 7.14

Prompt: Return the recorded pIC50 value; entry: C[C@H](c1ncccn1)N(Cc1ccc(C(F)(F)F)cn1)C(=O)c1cc2c(cc1F)nc(N)c1cncn12 [Compound 6]
Completion: 7.77

Prompt: Return the recorded pIC50 value; entry: CN(C(=O)c1ccc2nc(N)c3cncn3c2c1)C1COCc2cc(C(F)(F)F)ccc21 (centres unmarked) [Compound 23]
Completion: 7.40

Prompt: Return the recorded pIC50 value; entry: CN(C(=O)c1ccc2nc(N)c3cncn3c2c1)C1COc2nc(C(F)(F)F)ccc21 (centres unmarked) [Compound 28]
Completion: 6.32

====

# experiment.notes: Liver microsome metabolic stability (LMS) assay, human
# details: human, microsomes
measured.endpoint: half-life at 1 μM (min)
Quick note: give the figure in min, leave out the unit.

Prompt: Return the recorded half-life at 1 μM value; entry: C[C@]12CC[C@H]3[C@@H](CCC4=CC(=O)CC[C@@]43C)[C@@H]1CC[C@@H]2O [Ref. 4, Testosterone, reference compound]
Completion: 17.6

====

# experiment.notes: In vivo pharmacokinetics assay in mice via IV and PO
# Set-up: species or system ICR mice
# details: PO 30 mg/kg, plasma
# key: entry, value: C8 h
Quick note: unit goes after the number.

Sample answers from the record:
compound: CN(C(=O)c1ccc2nc(N)c3cncn3c2c1)C1COc2cc(C(F)(F)F)ccc21 (stereo not shown) [Compound 17]
C8 h: 8260 ng/mL

compound: CN(C(=O)c1cc2c(cn1)nc(N)c1cncn12)C1COc2cc(C(F)(F)F)ccc21 (stereo not shown) [Compound 21]
C8 h: 6880 ng/mL

compound: CN(C(=O)c1cc2c(cn1)nc(N)c1cncn12)C1COc2cc(C(F)(F)F)ccc21 (stereo not shown) [Compound 19]
C8 h: 4817 ng/mL

Here's the next entry for you.
Prompt: Return the recorded C8 h value; entry: CN(C(=O)c1cc2c(cn1)nc(N)c1cncn12)[C@@H]1COc2cc(C(F)(F)F)ccc21 [Compound 14]
Completion: 3833 ng/mL

====

# key: entry, value: IC50
# target.under.test: PRMT5/MEP50 complex (Homo sapiens (Human), UniProt O14744)
# Sequence (O14744 whole entry, species assumed): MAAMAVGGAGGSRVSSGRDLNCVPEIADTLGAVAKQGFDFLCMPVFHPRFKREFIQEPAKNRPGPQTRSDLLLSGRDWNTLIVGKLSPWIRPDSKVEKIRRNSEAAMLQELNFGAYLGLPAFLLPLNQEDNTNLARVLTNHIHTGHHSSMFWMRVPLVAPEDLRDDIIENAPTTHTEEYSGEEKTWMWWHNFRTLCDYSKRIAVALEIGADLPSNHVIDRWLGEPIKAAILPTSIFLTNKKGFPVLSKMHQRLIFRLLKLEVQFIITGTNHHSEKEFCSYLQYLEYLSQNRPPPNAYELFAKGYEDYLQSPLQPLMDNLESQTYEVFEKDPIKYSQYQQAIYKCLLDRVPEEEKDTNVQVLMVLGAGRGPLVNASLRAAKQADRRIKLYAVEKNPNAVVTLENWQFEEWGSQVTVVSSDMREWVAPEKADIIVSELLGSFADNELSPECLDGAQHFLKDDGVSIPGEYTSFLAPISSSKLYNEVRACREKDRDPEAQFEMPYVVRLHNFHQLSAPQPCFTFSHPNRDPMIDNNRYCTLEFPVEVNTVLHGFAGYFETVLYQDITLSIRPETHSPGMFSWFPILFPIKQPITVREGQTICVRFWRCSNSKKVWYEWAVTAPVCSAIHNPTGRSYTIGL
# Sequence (Q9BQA1 whole entry partner, species assumed): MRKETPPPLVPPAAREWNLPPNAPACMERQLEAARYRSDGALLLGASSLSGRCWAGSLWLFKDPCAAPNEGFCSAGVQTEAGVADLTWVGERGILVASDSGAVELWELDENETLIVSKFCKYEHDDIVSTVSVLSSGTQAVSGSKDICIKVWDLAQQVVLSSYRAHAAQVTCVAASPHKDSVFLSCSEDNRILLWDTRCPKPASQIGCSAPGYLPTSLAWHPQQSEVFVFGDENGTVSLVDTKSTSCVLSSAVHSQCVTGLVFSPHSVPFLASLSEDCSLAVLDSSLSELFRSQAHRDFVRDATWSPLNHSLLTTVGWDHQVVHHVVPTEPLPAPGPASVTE
# experiment.notes: PRMT5/MEP50 HotSpot methyltransferase assay (with 100 nM MTA)
# details: histone H2A substrate, 1 μM 3H-SAM
Quick note: give the figure in nM, leave out the unit.

Sample answers from the record:
smiles.string: Cc1ncn2c1c(N)nc1ccc(C(=O)N(Cc3ccc(C(F)(F)F)cn3)[C@H](C)c3ncccn3)cc12
value: 198
//
smiles.string: Cc1nc(C)n2c1c(N)nc1ccc(C(=O)N(Cc3ccc(C(F)(F)F)cn3)[C@H](C)c3ncccn3)cc12
value: 321

Prompt: Return the recorded IC50 value; entry: `Cc1ncc2c(N)nc3ccc(C(=O)N(Cc4ccc(C(F)(F)F)cn4)[C@H](C)c4ncccn4)cc3n12`
Completion: 91

====

# key: entry, value: CLint (hep) H
# Tested on: cryopreserved hepatocytes
# experiment.notes: Hepatic metabolic stability (HMS) assay, human hepatocytes
# details: human, hepatocytes

Sample answers from the record:
compound: CN(C(=O)c1cc2c(cn1)nc(N)c1cncn12)C1CC(F)(F)c2cc(C(F)(F)F)ccc21 (stereo not shown)
target.under.test: cryopreserved hepatocytes
CLint (hep) H: <6.4 μL/min/10^6
--
compound: CN(C(=O)c1cc2c(cn1)nc(N)c1cncn12)C1COc2cc(C(F)(F)F)ccc21 (stereo not shown) [Compound 21]
target.under.test: cryopreserved hepatocytes
CLint (hep) H: <6.4 μL/min/10^6
--
compound: O=c1ccc2ccc(O)cc2o1 [Ref. 2, 7-Hydroxycoumarin, reference compound]
target.under.test: cryopreserved hepatocytes
CLint (hep) H: 367.6 μL/min/10^6

Prompt: Return the recorded CLint (hep) H value; entry: CN(C(=O)c1cc2c(cn1)nc(N)c1cncn12)C1COc2cc(C(F)(F)F)ccc21 (stereo not shown) [Compound 19]
Completion: <6.4 μL/min/10^6

====

# experiment.notes: in vitro
# details: mouse, hepatocytes
measured.endpoint: CLint scaled at 3 μM (L/h/kg)
Quick note: give the figure in L/h/kg, leave out the unit.

Prompt: Return the recorded CLint scaled at 3 μM value; entry: `CCOc1ccc2ccc(=O)oc2c1`
Completion: 462

====

# experiment.notes: in vitro
# details: cynomolgus monkey, hepatocytes
measured.endpoint: CLint scaled at 3 μM (mL/min/kg)
Quick note: give the figure in mL/min/kg, leave out the unit.

Prompt: Return the recorded CLint scaled at 3 μM value; entry: `CCOc1ccc2ccc(=O)oc2c1`
Completion: 554

====

# key: entry, value: half-life at 1 μM
# experiment.notes: in vitro
# details: human, microsomes

Sample answers from the record:
smiles.string: CN(C(=O)c1cc2c(cn1)nc(N)c1cncn12)[C@@H]1COc2cc(C(F)(F)F)ccc21
half-life at 1 μM: > 2.42 h
--
smiles.string: O=C(O)Cc1ccccc1Nc1c(Cl)cccc1Cl
half-life at 1 μM: 0.112 h

Prompt: Return the recorded half-life at 1 μM value; entry: `CN(C(=O)c1ccc2nc(N)c3cncn3c2c1)[C@@H]1COc2cc(C(F)(F)F)ccc21`
Completion: > 2.42 h

====

# experiment.notes: in vitro
# details: cynomolgus monkey, hepatocytes
measured.endpoint: half-life at 3 μM (min)
Quick note: give the figure in min, leave out the unit.

Prompt: Return the recorded half-life at 3 μM value; entry: `CCOc1ccc2ccc(=O)oc2c1`
Completion: 9

====

# experiment.notes: In vivo pharmacokinetics assay in mice via IV and PO
# Parameters: species or system ICR mice
# details: male, ICR, mouse, PO 50 mg/kg, plasma, read-out: Cmax
measured.endpoint: Cmax

Prompt: Return the recorded Cmax value; entry: `CN(C(=O)c1cc2c(cn1)nc(N)c1cncn12)[C@@H]1COc2cc(C(F)(F)F)ccc21`
Completion: 9920 ng/mL

====

# experiment.notes: in vitro
# details: rat, hepatocytes
measured.endpoint: half-life at 3 μM (min)
Quick note: give the figure in min, leave out the unit.

Prompt: Return the recorded half-life at 3 μM value; entry: CCOc1ccc2ccc(=O)oc2c1 [Ref. 1, 7-Ethoxycoumarin]
Completion: 35.3

====

# experiment.notes: In vivo pharmacokinetics assay in mice via IV and PO
# Design: species or system ICR mice
# details: male, ICR, mouse, plasma, PO 30 mg/kg
# Description: Pharmacokinetics assay for test compounds was performed in mice via IV and PO. Test compound solution was prepared on the day of administration. Solvent: IV+PO: 5% DMSO+10% Soultol+85% H2O or saline Species: ICR mice; SPF level. Source: Beijing Vital River Laboratory Animal Technology Co., Ltd. Animal selection: Males. No random grouping Weighed before dosing, calculated dosage according to body weight. For Groups 1-3, the drug was administered intravenously or intragastrically. […]
measured.endpoint: half-life (h)
Quick note: give the figure in h, leave out the unit.

Prompt: Return the recorded half-life value; entry: CN(C(=O)c1cc2c(cn1)nc(N)c1cncn12)[C@@H]1COc2cc(C(F)(F)F)ccc21 [Compound 14]
Completion: 5.96

====

# Tested on: cryopreserved hepatocytes
# experiment.notes: Hepatic metabolic stability (HMS) assay, rat hepatocytes
# details: rat, hepatocytes
measured.endpoint: CLint (hep) R
Quick note: unit goes after the number.

Sample answers from the record:
molecule: O=c1ccc2ccc(O)cc2o1 [Ref. 2, 7-Hydroxycoumarin, reference compound]
target.under.test: cryopreserved hepatocytes
CLint (hep) R: 678.0 μL/min/10^6

molecule: CN(C(=O)c1cc2c(cn1)nc(N)c1cncn12)C1CC(F)(F)c2cc(C(F)(F)F)ccc21 (stereo not shown)
target.under.test: cryopreserved hepatocytes
CLint (hep) R: 12.9 μL/min/10^6

molecule: CN(C(=O)c1cc2c(cn1)nc(N)c1cncn12)C1COc2cc(C(F)(F)F)ccc21 (stereo not shown) [Compound 21]
target.under.test: cryopreserved hepatocytes
CLint (hep) R: 7.7 μL/min/10^6

Here's the next entry for you.
Prompt: Return the recorded CLint (hep) R value; entry: CN(C(=O)c1cc2c(cn1)nc(N)c1cncn12)C1COc2cc(C(F)(F)F)ccc21 (stereo not shown) [Compound 19]
Completion: 9.5 μL/min/10^6
